assay: in vitro; conditions: human, CC50, uninfected A549 cells, CellTiter-Glo
quantity_kind: CC50

Some molecules with known CC50 results, for comparison:
>>> print(df.to_string())
                                   molecule    result
0  COC[C@@H]1/C=C/COc2ccccc2[C@H](c2ccccc2)N2CN1C(=O)c1c(O)c(=O)ccn12 (single isomer, unassigned) [Compound 150B]   > 10 µM
1  O=C1c2c(O)c(=O)ccn2N2CN1C/C=C/COc1c(F)cccc1[C@@H]2c1ccccc1C1CC1 [Compound 123B]  > 0.2 µM
2  O=C1c2c(O)c(=O)ccn2N2CN1CCCCCOc1cccc3c1C2c1ccccc1SC3 (stereo not drawn)    > 2 µM

# input What value of measured CC50 is listed for O=C1CCN2CN(C(c3ccccc3)c3ccccc3CN1)n1ccc(=O)c(O)c1C2=O (stereo not drawn) ?
# output > 200 µM

# input What value of measured CC50 is listed for O=C1c2c(O)c(=O)ccn2N2CN1C/C=C\CCc1ncccc1[C@H]2c1ccccc1 (single isomer, unassigned) [Compound 24A] ?
# output > 10 µM

# input What value of measured CC50 is listed for C[C@@H]1/C=C/COc2c(F)cccc2[C@@H](c2ccccc2)N2CN1C(=O)c1c(O)c(=O)ccn12 (single isomer, unassigned) [Compound 141AA] ?
# output > 0.05 µM
